These data points were gathered from patent US20240294914A1.

- Test system: HBV genome in HEK293T cells transduced with a lentiviral vector
- assay_info: Base editing efficiency in Hek293-lentiHBV system (PCR amplicons sequenced on MiSeq)
- Assay type: cell-based, Hepatitis B virus
- setup_conditions: replicate 3, base editor Cas12b-ABE, plasmid transfection, four days
Strand notation (5' to 3'): a small letter for the sugar, then the base; units joined by * are phosphorothioate-linked, units joined directly phosphodiester-linked; [ ] holds rarer units or linkages, { } end groups; capitals alone tell only the bases. m = 2'-O-methyl; r = 2'-OH (RNA)
Binary classification by Editing Efficiency 3 (%), with 40% as an inclusive lower bound for y; all other cases are n.

cas12b-11: guide RNA SEQ ID NO: 381 (nucleic acid) guide: mG*mU*mU*rCrUrGrUrCrUrUrUrUrGrGrUrCrArGrGrArCrArArCrCrGrUrCrUrArGrCrUrArUrArArGrUrGrCrUrGrCrArGrGrGrUrGrUrGrArGrArArArCrUrCrCrUrArUrUrGrCrUrGrGrArCrGrArUrGrUrCrUrCrUrUrArCrGrArGrGrCrArUrUrArGrCrArCrCrArCrCrUrGrUrArUrUrCrCrCrArUrCrCrCrArU	y
cas12b-122b: guide RNA SEQ ID NO: 391 (nucleic acid, sugars from the 5' end m3 r114, linkages s3 o113 (s phosphorothioate, o phosphodiester), T or U not given here) guide: GTTCTGTCTTTTGGTCAGGACAACCGTCTAGCTATAAGTGCTGCAGGGTGTGAGAAACTCCTATTGCTGGACGATGTCTCTTACGAGGCATTAGCACCACGCACGCGCTGATGGCCC	n
cas12b-17: guide RNA SEQ ID NO: 382 (nucleic acid) guide: mG*mU*mU*rCrUrGrUrCrUrUrUrUrGrGrUrCrArGrGrArCrArArCrCrGrUrCrUrArGrCrUrArUrArArGrUrGrCrUrGrCrArGrGrGrUrGrUrGrArGrArArArCrUrCrCrUrArUrUrGrCrUrGrGrArCrGrArUrGrUrCrUrCrUrUrArCrGrArGrGrCrArUrUrArGrCrArCrGrGrGrGrCrCrArArGrUrCrUrGrUrArCrArGrCrA	y

Please tell me: is the molecule cas12b-124: guide RNA SEQ ID NO: 389 (nucleic acid) guide: mG*mU*mU*rCrUrGrUrCrUrUrUrUrGrGrUrCrArGrGrArCrArArCrCrGrUrCrUrArGrCrUrArUrArArGrUrGrCrUrGrCrArGrGrGrUrGrUrGrArGrArArArCrUrCrCrUrArUrUrGrCrUrGrGrArCrGrArUrGrUrCrUrCrUrUrArCrGrArGrGrCrArUrUrArGrCrArCrCrCrGrGrGrCrArArCrGrGrGrGrUrArArArGrGrU at or over 40% in terms of Editing Efficiency 3 (%)?
n

Please tell me: is the molecule cas12b-147: guide RNA SEQ ID NO: 386 (nucleic acid) guide: mG*mU*mU*rCrUrGrUrCrUrUrUrUrGrGrUrCrArGrGrArCrArArCrCrGrUrCrUrArGrCrUrArUrArArGrUrGrCrUrGrCrArGrGrGrUrGrUrGrArGrArArArCrUrCrCrUrArUrUrGrCrUrGrGrArCrGrArUrGrUrCrUrCrUrUrArCrGrArGrGrCrArUrUrArGrCrArCrGrArGrGrArCrArArArCrGrGrGrCrArArCrArUrA at or over 40% in terms of Editing Efficiency 3 (%)?
n

Please tell me: is the molecule cas12b-154: guide RNA SEQ ID NO: 387 (nucleic acid) guide: mG*mU*mU*rCrUrGrUrCrUrUrUrUrGrGrUrCrArGrGrArCrArArCrCrGrUrCrUrArGrCrUrArUrArArGrUrGrCrUrGrCrArGrGrGrUrGrUrGrArGrArArArCrUrCrCrUrArUrUrGrCrUrGrGrArCrGrArUrGrUrCrUrCrUrUrArCrGrArGrGrCrArUrUrArGrCrArCrUrUrGrUrCrArArCrArArGrArArArArArCrCrCrC at or over 40% in terms of Editing Efficiency 3 (%)?
n
